- System: MS2 coat protein
- Experiment: apparent KD of MS2 coat protein; designed switch direction (-1 OFF switch, 1 ON switch): -1; higher = weaker reporter binding
- Setup Conditions: input ligand: none
Please use satisfied whenever apparent KD of MS2 coat protein is not below 200 nM, and not satisfied whenever it is.

1) GCAGAAUGAGUUAGGAUAUGAUGAUUAUUCGGAAAUCAGAAGGAACUUGAGGAUCACCCAAGUAAAGAUAGGGU [JR_BMEx4_Sub063] (Eterna round: R97, puzzle: Brourd's mod of Exclusion 4) :: satisfied
2) AGGUGUAGAGGAUAUCUCUUCUCUCACAUGAGGAUCACCCAUGUCCUGGGUACCUAGGAGAGAGAAGGCUACACCA [Omei Ex5 D11] (Eterna round: R97, puzzle: Exclusion 5) :: satisfied

hey, is apparent KD of MS2 coat protein for this one >= 200 nM? CCUUAUUCACAGGAUAUGCUCAUCUAAUGAUGAGCAGAAGGGUGGACAUGAGGAUCACCCAUGUUUAUCAAUGG [Omei Ex6 D5] (Eterna round: R97, puzzle: Exclusion 6)
satisfied

hey, is apparent KD of MS2 coat protein for this one >= 200 nM? AAGGCGGUAGGAUAUACAUGAGGAUCACCCAUGUGUCGCAUAAUCACAGCAGUACUCUGUAGAAGGACCGUCAG [Eternabot (L2) Solution 100] (Eterna round: R97, puzzle: Exclusion 3)
not satisfied

hey, is apparent KD of MS2 coat protein for this one >= 200 nM? GUCAUACAUGAGGAUCACCCAUGUGAGGAUAUGAGUGGUGCUGCUAGGUAGUAUAGACUCAGAAGGCGCAUGAU [Malcxlusion 1 - Jieux - Exclusion 1] (Eterna round: R97, puzzle: Exclusion 1)
not satisfied

----------
- Tested on: MS2 coat protein
- Experiment: apparent KD of MS2 coat protein; designed switch direction (-1 OFF switch, 1 ON switch): -1; higher = weaker reporter binding
- Setup Conditions: input ligand: none
The following sequences are shown together with reported apparent KD of MS2 coat protein values.
Just the number please, in nM, no unit attached.

1) GUUCGACAUGAGGAUCACCCAUGUGAGGAUAUACGAUUAGCUGCUAGGUAGUUAGUAUGUAGAAGGUGCGUGAA [EX1 #72] (Eterna round: R97, puzzle: Exclusion 1) :: 41.6
2) CACCGUUACUGAGGAUAUGGCACAUGAGGAUCACCCAUGUAAUAAAUGAGAAUUUCGGAUGUAUUCCAGAAGGCAGUAACCGGC [Ostricism 69 - Jieux - Exclusion NG 2] (Eterna round: R96, puzzle: Exclusion NG 2) :: 27.1

I have this sequence here, CUAGAGUCAGGAUAUACGAGAUCGAAAGAUCGGCGAUCCCUACAUGAGGAUCACCCAUGUAGAAGGGACUCUAG [Mod 11 - Jieux - Exclusion 2] (Eterna round: R97, puzzle: Exclusion 2) , and I need its recorded apparent KD of MS2 coat protein.
13.8

I have this sequence here, GCUGCAAAUGUAGGAUAUCUGCACGUUUAGUGCAGAGAAGGACAUGAGGAUCACCCAUGUAGAUCAGCAGCAAUUAAUUUAAUU [ENG1/5-A2] (Eterna round: R96, puzzle: Exclusion NG 1) , and I need its recorded apparent KD of MS2 coat protein.
45.2

I have this sequence here, AUCAGCUCGUGAGGAUAUAUAUAUACAUGAGGAUCACCCAUGUUAGAUCAGCUUCGGCAGUAUAUAUAGAAGGCACGAGCUGAU [ENG2/15-A2] (Eterna round: R96, puzzle: Exclusion NG 2) , and I need its recorded apparent KD of MS2 coat protein.
79.6

----------
- Test system: K4 kissing-loop RNA reporter
- Experiment: apparent KD of K4 kissing-loop reporter; higher = weaker reporter binding
- Setup Conditions: Eterna round: R107; input ligand: arginine 13.2 mM
Measured Attribute: apparent KD of K4 kissing-loop reporter
Answer with the value and then the unit.

I have this sequence here, UGGGAUGGUUCGGCCGCCACUAUGGUGCAGUGAUGUUGCAUCGUAGUAAAUCAUUCCAUUUACCGUAGGACCGGGAACCUUACGC [Mavelege] , and I need its recorded apparent KD of K4 kissing-loop reporter.
82.7 nM

I have this sequence here, UGUUUUUACUGAAGGAGCGGCAAUUGAUACGUAGAUAUAGUGAUGUUAUAUAAGAUAGAGAGCCAGGUAGGUCGCAGAGUUUUUC [ExArgB.Z] , and I need its recorded apparent KD of K4 kissing-loop reporter.
167 nM

I have this sequence here, UAGCGAUGAAGUGAUACCAGAGAGUGAUGUUCUUUUUUUAUUCAGAAUACUGUCGCCUUGCUCCCUUGGCAGCACGCAGGCGCAG [theeternabot_exclusion_KL_Theo_B_18] , and I need its recorded apparent KD of K4 kissing-loop reporter.
255 nM

I have this sequence here, CUAACGGUACGAGUGAUGUUCAGCAAGGAUACCAGCGGACAGUCACGCCCUUGGCAGCCUAGUUUCUACCCGUCGGAAUUUCUUA [theeternabot_sameState_KL_Theo_A_2] , and I need its recorded apparent KD of K4 kissing-loop reporter.
366 nM

I have this sequence here, GUAUCGCUAGGAGGAUAUUUCAAUCUGACUCUUUGAGUUAGUACGGAGUGAUGUUCCGAUUUACGGAAAGAAGGCCUAGUGAUAC [FMN B 11] , and I need its recorded apparent KD of K4 kissing-loop reporter.
312 nM

I have this sequence here, UUUUAAAUAUCUGAUACCAGAGAAAAUAUAUGUAGUGAUGUUAUAUACAAAAUAAUUAAGCUCCCUUGGCAGCAGUAUUAAUUUU [AstrosExc-TheB#3] , and I need its recorded apparent KD of K4 kissing-loop reporter.
658 nM

----------
- Test system: MS2 coat protein
- Experiment: apparent KD of MS2 coat protein; designed switch direction (-1 OFF switch, 1 ON switch): -1; higher = weaker reporter binding
- Setup Conditions: input ligand: none
Measured Attribute: apparent KD of MS2 coat protein (nM)
Just the number please, in nM, no unit attached.

Recorded apparent KD of MS2 coat protein, per entry:
1) AGAACACAUGAGGAUCACCCAUGUCAGGAUAUCGACUGAACAGCUUCGGCUGUUCAGUCGAGAAGGGACAAUUA [Brourdxlusion 6 - Jieux - Exclusion 1] (Eterna round: R97, puzzle: Exclusion 1) :: 55.8
2) GAGCAGUGAGGAUAUACAUGAGGAUCACCCAUGUAAUGGUAGUCGGGAUUAAUUUGGUGUAGAAGGCGCUUAUU [JR_Ex3_Sub021] (Eterna round: R97, puzzle: Exclusion 3) :: 79.9
3) GCAUAUGAUGUAGGAUAUGCGAGACAUGAGGAUCACCCAUGUGAGGGAAGGAGAAGGAGAAGAGAGUAGAAGGAUAGAGUGUGA [Default title] (Eterna round: R96, puzzle: Exclusion NG 2) :: 85.1
4) GACUUCUCUGAGGAUAUUGCAUCAUACGAUAAAUAAGAAGGCAGAACAUGAGGAUCACCCAUGUGGGUUUUUAG [Bingo-Bango-32] (Eterna round: R97, puzzle: Exclusion 6) :: 68.6

Could you now consider this next sequence?
I have this sequence here, UUAAUUAAUUAAGCGCAAGAUCACAUGAGGAUCACCCAUGUAUAGGAUAUCAGCUCGUGUAGAGCUGAGAAGGAUACAUAGCGC [ExNG3/2-A3] (Eterna round: R96, puzzle: Exclusion NG 3) , and I need its recorded apparent KD of MS2 coat protein.
143

----------
- System: K4 kissing-loop RNA reporter;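 also: bound reporter read as fluorescence of individual clusters on recovered sequencing chips by microscopy, with normalized cluster intensities fitted with a binding model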
- Experiment: apparent KD of K4 kissing-loop reporter; higher = weaker reporter binding
- Setup Conditions: Eterna round: R107; input ligand: arginine 13.2 mM
Measured Attribute: apparent KD of K4 kissing-loop reporter (nM)
Just the number please, in nM, no unit attached.

Recorded apparent KD of K4 kissing-loop reporter, per entry:
1. GAUUUAGAGGCGGCCGCCACUAGUGAUGUUAGUGAUGUUUGAUACUGAAUAUAUCUGCGUUUAGAUAGGACCGGGCCAGAUGGAG [qzwqmullin] :: 164
2. CUAAUCGCUCAUGAUACCAGCUAGUGAUGUUAGCCCGUCAAGCUGAGGGUUCAUCCACCCAGCCCUUGGCAGCAUUCUCGGUCAG [theeternabot_exclusion_KL_Theo_B_8] :: 313
3. CGAUACGGAAAUACGUGUCUCUAUUCAGAAGGAGCGUGGUAGUACACAGGUAGGUCGCUGAAAUUUAAACUAGUGAUGUUAGACU [JR_SSArginiA_Sub004] :: 742
4. GUGAAUGGCUGAGCAGCCGUGGUACGAGAUACCAGUGAUUUCGAUCACCCUUGGCAGCUCGGCGUGAGUGAUGUUCACGCUACAC [Theo A SS t12a] :: 278
5. AUGCGCGUGCGAUGUAAAUCGCACGCGCAUCGAGGACCGGUACGGCCGCCACUCGCUCGCGCCGAGUGAUGUUCGGCCGGCGAAC [#2 Same State - Tryptophan A Attempt #5 (HarryS)] :: 278

I have this sequence here, AUAGAGAAGUGGCACCCUCACUAAAACAGUCGAGGACCGGUACGGCCGCCACUCGCGCGCUUUAGUGAUGUUAAAGAUGUGAAAA , and I need its recorded apparent KD of K4 kissing-loop reporter.
209
